# Tested on: MDA-MB-468
# experiment.summary: Antiproliferative activity against human MDA-MB-468 cells assessed as inhibition of cell growth incubated for 7 days by MTT assay
# Assay type: functional, cell-based
# cond: MDA-MB-468, 168 h
pIC50: −log10 of the molar value.
Rule: pIC50 of 7 or more gives 1; anything lower gives -1.

Record excerpt, results attached:
{"structure.smiles.string": "Cc1ccc(NC(=O)c2ccc(NC(=O)N3CCN(C(=O)c4cc(Cc5n[nH]c(=O)c6ccccc56)ccc4F)CC3)cc2)cc1", "class": 1}
{"structure.smiles.string": "O=c1[nH]nc2c3c(cccc13)N=C(CN1Cc3ccccc3C1)N2", "class": -1}

Continue with the next molecule.
Problem: Would you say `O=C(c1cc(Cc2n[nH]c(=O)c3ccccc23)ccc1F)N1CCN(C(=O)C2CC2)CC1` shows pIC50 at minimum 7?
Result: -1

----------
# test.target: Poly [ADP-ribose] polymerase tankyrase-1 (Homo sapiens)
# Sequence (O95271 whole entry): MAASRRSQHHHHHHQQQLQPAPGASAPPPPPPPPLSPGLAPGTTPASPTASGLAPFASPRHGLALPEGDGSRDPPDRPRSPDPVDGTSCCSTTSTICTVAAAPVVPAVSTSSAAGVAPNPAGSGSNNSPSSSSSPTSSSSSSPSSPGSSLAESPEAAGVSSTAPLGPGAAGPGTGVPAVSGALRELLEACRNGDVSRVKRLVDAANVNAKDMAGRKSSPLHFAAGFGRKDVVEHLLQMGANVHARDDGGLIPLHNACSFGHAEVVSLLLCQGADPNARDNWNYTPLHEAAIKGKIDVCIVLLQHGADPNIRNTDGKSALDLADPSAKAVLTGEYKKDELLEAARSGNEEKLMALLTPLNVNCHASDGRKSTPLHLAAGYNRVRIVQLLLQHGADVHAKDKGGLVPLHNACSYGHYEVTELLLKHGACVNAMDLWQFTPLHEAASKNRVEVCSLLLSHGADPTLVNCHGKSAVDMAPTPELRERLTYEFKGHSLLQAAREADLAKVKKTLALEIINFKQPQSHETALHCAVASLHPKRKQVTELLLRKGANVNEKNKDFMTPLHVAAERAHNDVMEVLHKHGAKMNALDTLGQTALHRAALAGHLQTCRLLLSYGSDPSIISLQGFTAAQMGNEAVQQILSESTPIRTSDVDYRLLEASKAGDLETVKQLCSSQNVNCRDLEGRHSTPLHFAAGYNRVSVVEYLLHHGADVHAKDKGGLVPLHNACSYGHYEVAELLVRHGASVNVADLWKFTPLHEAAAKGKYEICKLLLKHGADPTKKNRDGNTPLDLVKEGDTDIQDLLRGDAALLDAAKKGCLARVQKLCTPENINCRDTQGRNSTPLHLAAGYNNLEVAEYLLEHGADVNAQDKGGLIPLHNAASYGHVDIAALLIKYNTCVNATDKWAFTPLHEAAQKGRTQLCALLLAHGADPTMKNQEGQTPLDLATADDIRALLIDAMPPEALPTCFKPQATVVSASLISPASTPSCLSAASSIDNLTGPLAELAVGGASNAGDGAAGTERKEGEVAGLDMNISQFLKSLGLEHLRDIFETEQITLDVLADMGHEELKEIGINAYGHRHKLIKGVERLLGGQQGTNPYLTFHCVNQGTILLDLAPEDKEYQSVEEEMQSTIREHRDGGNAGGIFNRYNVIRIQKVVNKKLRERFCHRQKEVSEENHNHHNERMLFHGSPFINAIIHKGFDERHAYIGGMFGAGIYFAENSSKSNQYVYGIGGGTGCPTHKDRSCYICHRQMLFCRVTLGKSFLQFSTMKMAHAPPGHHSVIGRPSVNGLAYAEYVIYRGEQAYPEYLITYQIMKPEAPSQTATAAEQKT
# experiment.summary: Inhibition of TNKS1 (unknown origin) using biotin-NAD+ as substrate incubated for 1 hr in the presence of deoxy-oligonucleotide by ELISA analysis relative to control
measured.endpoint: log10 IC50 (log10 of the value in nM)
Values reflect log10 of reported IC50 (nM).

{"structure.smiles.string": "O=C(Nc1ccc(C(F)(F)F)cc1)c1ccc(NC(=O)N2CCN(C(=O)c3cc(Cc4n[nH]c(=O)c5ccccc45)ccc3F)CC2)cc1", "test.target": "Poly [ADP-ribose] polymerase tankyrase-1 (Homo sapiens)", "measured.number": 2.74}
{"structure.smiles.string": "O=C(Nc1ccc(F)cc1)c1ccc(NC(=O)N2CCN(C(=O)c3cc(Cc4n[nH]c(=O)c5ccccc45)ccc3F)CC2)cc1", "test.target": "Poly [ADP-ribose] polymerase tankyrase-1 (Homo sapiens)", "measured.number": 2.33}
{"structure.smiles.string": "Cc1ccccc1NC(=O)c1ccc(NC(=O)N2CCN(C(=O)c3cc(Cc4n[nH]c(=O)c5ccccc45)ccc3F)CC2)cc1", "test.target": "Poly [ADP-ribose] polymerase tankyrase-1 (Homo sapiens)", "measured.number": 2.11}
{"structure.smiles.string": "Cc1ccc(NC(=O)c2ccc(NC(=O)N3CCN(C(=O)c4cc(Cc5n[nH]c(=O)c6ccccc56)ccc4F)CC3)cc2)cc1", "test.target": "Poly [ADP-ribose] polymerase tankyrase-1 (Homo sapiens)", "measured.number": 1.59}

Problem: Note down log10 IC50 recorded for `O=C(Nc1ccccc1F)c1ccc(NC(=O)N2CCN(C(=O)c3cc(Cc4n[nH]c(=O)c5ccccc45)ccc3F)CC2)cc1`
Result: 2.70

----------
# test.target: Protein mono-ADP-ribosyltransferase PARP14 (Homo sapiens, UniProt Q460N5)
# Sequence (Q460N5 whole entry): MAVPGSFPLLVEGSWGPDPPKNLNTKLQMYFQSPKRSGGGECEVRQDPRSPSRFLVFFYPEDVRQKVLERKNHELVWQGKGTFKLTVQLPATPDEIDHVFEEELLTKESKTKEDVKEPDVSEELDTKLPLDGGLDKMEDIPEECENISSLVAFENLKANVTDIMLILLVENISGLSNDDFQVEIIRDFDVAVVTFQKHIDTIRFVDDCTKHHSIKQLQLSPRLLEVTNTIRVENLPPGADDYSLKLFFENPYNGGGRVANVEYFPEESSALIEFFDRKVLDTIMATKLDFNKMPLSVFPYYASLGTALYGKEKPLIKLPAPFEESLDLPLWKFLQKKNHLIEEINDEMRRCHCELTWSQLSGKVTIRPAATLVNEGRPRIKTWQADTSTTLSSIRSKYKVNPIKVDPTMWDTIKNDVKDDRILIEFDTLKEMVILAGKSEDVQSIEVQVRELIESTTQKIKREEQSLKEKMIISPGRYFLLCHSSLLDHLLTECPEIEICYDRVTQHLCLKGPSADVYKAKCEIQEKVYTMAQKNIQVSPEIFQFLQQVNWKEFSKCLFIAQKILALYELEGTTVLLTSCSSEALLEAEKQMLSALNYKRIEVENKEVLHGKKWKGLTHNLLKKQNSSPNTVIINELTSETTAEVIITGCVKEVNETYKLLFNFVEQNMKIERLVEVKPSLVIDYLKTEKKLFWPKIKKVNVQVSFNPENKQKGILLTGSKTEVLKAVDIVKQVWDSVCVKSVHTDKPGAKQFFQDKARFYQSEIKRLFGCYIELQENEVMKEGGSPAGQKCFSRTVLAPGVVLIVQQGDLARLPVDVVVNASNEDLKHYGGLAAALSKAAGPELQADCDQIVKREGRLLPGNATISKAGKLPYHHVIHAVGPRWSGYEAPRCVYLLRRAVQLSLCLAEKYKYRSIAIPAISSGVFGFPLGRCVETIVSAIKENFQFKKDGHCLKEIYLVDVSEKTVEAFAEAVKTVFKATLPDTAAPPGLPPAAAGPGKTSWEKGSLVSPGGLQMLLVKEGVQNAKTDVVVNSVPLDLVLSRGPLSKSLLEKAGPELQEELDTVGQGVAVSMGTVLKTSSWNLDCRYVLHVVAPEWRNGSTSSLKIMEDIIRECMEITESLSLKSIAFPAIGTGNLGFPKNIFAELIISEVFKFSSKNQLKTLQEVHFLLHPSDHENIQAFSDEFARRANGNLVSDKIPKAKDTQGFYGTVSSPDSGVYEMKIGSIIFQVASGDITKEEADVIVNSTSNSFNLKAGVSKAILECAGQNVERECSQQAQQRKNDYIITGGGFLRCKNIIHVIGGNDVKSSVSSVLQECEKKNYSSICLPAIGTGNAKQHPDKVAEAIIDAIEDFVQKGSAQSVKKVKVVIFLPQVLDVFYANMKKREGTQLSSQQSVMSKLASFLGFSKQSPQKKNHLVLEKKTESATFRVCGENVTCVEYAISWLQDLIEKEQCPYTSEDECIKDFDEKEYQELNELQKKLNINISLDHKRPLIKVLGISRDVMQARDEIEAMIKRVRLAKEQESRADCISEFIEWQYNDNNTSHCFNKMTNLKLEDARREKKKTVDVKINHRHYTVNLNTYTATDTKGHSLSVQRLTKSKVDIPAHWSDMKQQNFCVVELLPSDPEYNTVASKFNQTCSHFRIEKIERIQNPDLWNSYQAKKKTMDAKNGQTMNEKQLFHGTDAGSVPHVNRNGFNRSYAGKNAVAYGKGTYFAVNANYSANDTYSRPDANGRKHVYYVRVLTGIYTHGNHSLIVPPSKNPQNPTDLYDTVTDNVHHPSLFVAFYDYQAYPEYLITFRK
measured.endpoint: IC50 (µM)
Answers are plain numbers, in µM.

Problem: Report measured IC50 on Protein mono-ADP-ribosyltransferase PARP14 (Homo sapiens, UniProt Q460N5); entry: `COc1ccc(NC(=O)c2ccc(NC(=O)N3CCN(C(=O)c4cc(Cc5n[nH]c(=O)c6ccccc56)ccc4F)CC3)cc2)cc1`
Result: 1.37

----------
# System: HCT-116
# experiment.summary: Antiproliferative activity against human HCT-116 cells assessed as inhibition of cell growth incubated for 7 days by MTT assay
# Format: functional, cell-based
# cond: HCT-116, 168 h
measured.endpoint: IC50

{"structure.smiles.string": "O=C(Nc1ccc(F)cc1)c1ccc(NC(=O)N2CCN(C(=O)c3cc(Cc4n[nH]c(=O)c5ccccc45)ccc3F)CC2)cc1", "test.target": "HCT-116", "IC50": "510 nM"}
{"structure.smiles.string": "COc1ccc(NC(=O)c2ccc(NC(=O)N3CCN(C(=O)c4cc(Cc5n[nH]c(=O)c6ccccc56)ccc4F)CC3)cc2)cc1", "test.target": "HCT-116", "IC50": "750 nM"}
{"structure.smiles.string": "O=c1[nH]nc2c3c(cccc13)N=C(CN1Cc3ccccc3C1)N2", "test.target": "HCT-116", "IC50": "6710 nM"}
{"structure.smiles.string": "O=C(c1cc(Cc2n[nH]c(=O)c3ccccc23)ccc1F)N1CCN(C(=O)C2CC2)CC1", "test.target": "HCT-116", "IC50": "5560 nM"}

Provide the reported IC50 of each entry below, same order.
1. Cc1ccc(NC(=O)c2ccc(NC(=O)N3CCN(C(=O)c4cc(Cc5n[nH]c(=O)c6ccccc56)ccc4F)CC3)cc2)cc1
2. Cc1ccccc1NC(=O)c1ccc(NC(=O)N2CCN(C(=O)c3cc(Cc4n[nH]c(=O)c5ccccc45)ccc3F)CC2)cc1

Result:
1. 700 nM
2. 1040 nM

----------
# test.target: UniProt:P09874
# Sequence (P09874 whole entry): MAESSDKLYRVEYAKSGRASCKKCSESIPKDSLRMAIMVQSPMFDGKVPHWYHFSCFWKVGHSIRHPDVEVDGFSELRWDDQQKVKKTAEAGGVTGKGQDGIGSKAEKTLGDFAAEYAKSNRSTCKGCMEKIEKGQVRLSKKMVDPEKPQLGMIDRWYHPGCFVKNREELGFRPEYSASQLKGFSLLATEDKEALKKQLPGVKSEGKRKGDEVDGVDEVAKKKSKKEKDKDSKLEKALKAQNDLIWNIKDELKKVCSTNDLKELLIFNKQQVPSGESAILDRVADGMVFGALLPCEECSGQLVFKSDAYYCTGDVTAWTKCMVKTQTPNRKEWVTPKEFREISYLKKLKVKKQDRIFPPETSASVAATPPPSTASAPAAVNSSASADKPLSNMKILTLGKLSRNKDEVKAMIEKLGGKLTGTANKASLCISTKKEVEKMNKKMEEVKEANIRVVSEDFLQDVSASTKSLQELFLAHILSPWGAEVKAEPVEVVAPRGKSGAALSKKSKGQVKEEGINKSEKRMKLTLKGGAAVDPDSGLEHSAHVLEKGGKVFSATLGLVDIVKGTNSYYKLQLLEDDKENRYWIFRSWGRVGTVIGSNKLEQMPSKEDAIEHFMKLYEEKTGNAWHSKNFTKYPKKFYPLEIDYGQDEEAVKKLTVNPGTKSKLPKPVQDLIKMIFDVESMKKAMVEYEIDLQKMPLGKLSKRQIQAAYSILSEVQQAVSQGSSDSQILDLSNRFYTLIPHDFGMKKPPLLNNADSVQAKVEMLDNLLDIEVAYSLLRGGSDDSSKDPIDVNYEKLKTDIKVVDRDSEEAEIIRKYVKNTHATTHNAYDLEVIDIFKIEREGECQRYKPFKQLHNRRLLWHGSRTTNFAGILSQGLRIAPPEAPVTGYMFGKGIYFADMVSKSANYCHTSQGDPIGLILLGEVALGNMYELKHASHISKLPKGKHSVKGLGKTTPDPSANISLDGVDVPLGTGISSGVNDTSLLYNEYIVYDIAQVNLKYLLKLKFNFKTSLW
# experiment.summary: Inhibition of PARP-1 (unknown origin) using biotinylated NAD+ as substrate incubated for 45 mins in the presence of deoxy-oligonucleotide by microplate reader method relative to control
measured.endpoint: pIC50
One number for each entry, as −log10 of the molar value.

Provide the reported pIC50 of each entry below, same order.
1. Cc1ccc(NC(=O)c2ccc(NC(=O)N3CCN(C(=O)c4cc(Cc5n[nH]c(=O)c6ccccc56)ccc4F)CC3)cc2)cc1
2. O=C(Nc1ccc(F)cc1)c1ccc(NC(=O)N2CCN(C(=O)c3cc(Cc4n[nH]c(=O)c5ccccc45)ccc3F)CC2)cc1
3. Cc1ccccc1NC(=O)c1ccc(NC(=O)N2CCN(C(=O)c3cc(Cc4n[nH]c(=O)c5ccccc45)ccc3F)CC2)cc1
4. O=C(Nc1ccccc1F)c1ccc(NC(=O)N2CCN(C(=O)c3cc(Cc4n[nH]c(=O)c5ccccc45)ccc3F)CC2)cc1

Result:
1. 9.31
2. 8.81
3. 8.79
4. 9.01

Problem: Note down pIC50 recorded for `O=C(Nc1ccc(C(F)(F)F)cc1)c1ccc(NC(=O)N2CCN(C(=O)c3cc(Cc4n[nH]c(=O)c5ccccc45)ccc3F)CC2)cc1`
Result: 8.39

----------
# test.target: Poly [ADP-ribose] polymerase tankyrase-1 (Homo sapiens) (UniProt O95271)
# Sequence (O95271 whole entry): as the sequence (O95271 whole entry) above
# cond: dose 10.0 nM, time 1.0 hrs
measured.endpoint: inhibition (%)
Give bare numbers, in %.

{"structure.smiles.string": "Cc1ccc(NC(=O)c2ccc(NC(=O)N3CCN(C(=O)c4cc(Cc5n[nH]c(=O)c6ccccc56)ccc4F)CC3)cc2)cc1", "inhibition [%]": 13}
{"structure.smiles.string": "Cc1ccccc1NC(=O)c1ccc(NC(=O)N2CCN(C(=O)c3cc(Cc4n[nH]c(=O)c5ccccc45)ccc3F)CC2)cc1", "inhibition [%]": 20}
{"structure.smiles.string": "COc1ccc(NC(=O)c2ccc(NC(=O)N3CCN(C(=O)c4cc5cccc(C(N)=O)c5o4)CC3)cc2)cc1", "inhibition [%]": 22.5}
{"structure.smiles.string": "O=C(Nc1ccc(C(F)(F)F)cc1)c1ccc(NC(=O)N2CCN(C(=O)c3cc(Cc4n[nH]c(=O)c5ccccc45)ccc3F)CC2)cc1", "inhibition [%]": 12.5}
{"structure.smiles.string": "O=C(Nc1ccc(F)cc1)c1ccc(NC(=O)N2CCN(C(=O)c3cc(Cc4n[nH]c(=O)c5ccccc45)ccc3F)CC2)cc1", "inhibition [%]": 14}
{"structure.smiles.string": "O=C(Nc1ccccc1F)c1ccc(NC(=O)N2CCN(C(=O)c3cc(Cc4n[nH]c(=O)c5ccccc45)ccc3F)CC2)cc1", "inhibition [%]": 10.5}
{"structure.smiles.string": "COc1ccc(NC(=O)c2ccc(NC(=O)N3CCN(C(=O)c4cc(Cc5n[nH]c(=O)c6ccccc56)ccc4F)CC3)cc2)cc1", "inhibition [%]": 28}

Problem: Note down inhibition recorded for `Oc1nc(-c2ccc(C(F)(F)F)cc2)nc2c1CSCC2`
Result: 86

----------
# Test system: MDA-MB-468
# experiment.summary: Antiproliferative activity against human MDA-MB-468 cells assessed as inhibition of cell growth incubated for 7 days by MTT assay
# Assay type: functional, cell-based
# cond: MDA-MB-468, 168 h
measured.endpoint: IC50 (nM)
One number for each entry, in nM.

Examples with answers:
{"structure.smiles.string": "Cc1ccccc1NC(=O)c1ccc(NC(=O)N2CCN(C(=O)c3cc(Cc4n[nH]c(=O)c5ccccc45)ccc3F)CC2)cc1", "IC50, nM": 70}
{"structure.smiles.string": "COc1ccc(NC(=O)c2ccc(NC(=O)N3CCN(C(=O)c4cc(Cc5n[nH]c(=O)c6ccccc56)ccc4F)CC3)cc2)cc1", "IC50, nM": 90}

Let us move to another entry and its IC50.
Problem: Note down IC50 recorded for `O=C(Nc1ccc(F)cc1)c1ccc(NC(=O)N2CCN(C(=O)c3cc(Cc4n[nH]c(=O)c5ccccc45)ccc3F)CC2)cc1`
Result: 110
